Values from BigSolDB 2.1

- CONDITION_DETAILS: in acetonitrile, 303.15 K
MEASURED_METRIC: solubility (mole fraction)

SMILES_TEXT	MEASURED_METRIC	ASSAY_RESULT
C=C[C@]1(C)C[C@@H](OC(=O)CSCCN(CC)CC)[C@]2(C)[C@H](C)CC[C@]3(CCC(=O)[C@H]32)[C@@H](C)[C@@H]1O.O=C(O)/C=C/C(=O)O	solubility (mole fraction)	0.000235

###

- CONDITION_DETAILS: in n-butyl acetate, 293.15 K

SMILES_TEXT	solubility (mole fraction)
C=C[C@]1(C)C[C@@H](OC(=O)CSCCN(CC)CC)[C@]2(C)[C@H](C)CC[C@]3(CCC(=O)[C@H]32)[C@@H](C)[C@@H]1O.O=C(O)/C=C/C(=O)O	0.000712

###

- CONDITION_DETAILS: in acetone, 283.15 K

SMILES_TEXT	solubility (mole fraction)
C=C[C@]1(C)C[C@@H](OC(=O)CSCCN(CC)CC)[C@]2(C)[C@H](C)CC[C@]3(CCC(=O)[C@H]32)[C@@H](C)[C@@H]1O.O=C(O)/C=C/C(=O)O	0.00132

###

- CONDITION_DETAILS: in ethyl acetate, 313.15 K
MEASURED_METRIC: solubility (mole fraction)

SMILES_TEXT	ASSAY_RESULT
C=C[C@]1(C)C[C@@H](OC(=O)CSCCN(CC)CC)[C@]2(C)[C@H](C)CC[C@]3(CCC(=O)[C@H]32)[C@@H](C)[C@@H]1O.O=C(O)/C=C/C(=O)O	0.00147

###

- CONDITION_DETAILS: in ethyl acetate, 283.15 K

SMILES_TEXT	solubility (mole fraction)
C=C[C@]1(C)C[C@@H](OC(=O)CSCCN(CC)CC)[C@]2(C)[C@H](C)CC[C@]3(CCC(=O)[C@H]32)[C@@H](C)[C@@H]1O.O=C(O)/C=C/C(=O)O	0.000525

###

- CONDITION_DETAILS: in methyl acetate, 313.15 K
MEASURED_METRIC: solubility (mole fraction)

SMILES_TEXT	MEASURED_METRIC	ASSAY_RESULT
C=C[C@]1(C)C[C@@H](OC(=O)CSCCN(CC)CC)[C@]2(C)[C@H](C)CC[C@]3(CCC(=O)[C@H]32)[C@@H](C)[C@@H]1O.O=C(O)/C=C/C(=O)O	solubility (mole fraction)	0.000964

###

- CONDITION_DETAILS: in acetonitrile, 293.15 K

SMILES_TEXT	solubility (mole fraction)
C=C[C@]1(C)C[C@@H](OC(=O)CSCCN(CC)CC)[C@]2(C)[C@H](C)CC[C@]3(CCC(=O)[C@H]32)[C@@H](C)[C@@H]1O.O=C(O)/C=C/C(=O)O	0.00016

###

- CONDITION_DETAILS: in isobutyl acetate, 293.15 K

SMILES_TEXT	solubility (mole fraction)
C=C[C@]1(C)C[C@@H](OC(=O)CSCCN(CC)CC)[C@]2(C)[C@H](C)CC[C@]3(CCC(=O)[C@H]32)[C@@H](C)[C@@H]1O.O=C(O)/C=C/C(=O)O	0.000574

###

- CONDITION_DETAILS: in toluene, 313.15 K

SMILES_TEXT	solubility (mole fraction)
C=C[C@]1(C)C[C@@H](OC(=O)CSCCN(CC)CC)[C@]2(C)[C@H](C)CC[C@]3(CCC(=O)[C@H]32)[C@@H](C)[C@@H]1O.O=C(O)/C=C/C(=O)O	0.000274

###

- CONDITION_DETAILS: in toluene, 303.15 K

SMILES_TEXT	solubility (mole fraction)
C=C[C@]1(C)C[C@@H](OC(=O)CSCCN(CC)CC)[C@]2(C)[C@H](C)CC[C@]3(CCC(=O)[C@H]32)[C@@H](C)[C@@H]1O.O=C(O)/C=C/C(=O)O	0.000174

###

- CONDITION_DETAILS: in MIBK, 283.15 K
MEASURED_METRIC: solubility (mole fraction)

SMILES_TEXT	MEASURED_METRIC	ASSAY_RESULT
C=C[C@]1(C)C[C@@H](OC(=O)CSCCN(CC)CC)[C@]2(C)[C@H](C)CC[C@]3(CCC(=O)[C@H]32)[C@@H](C)[C@@H]1O.O=C(O)/C=C/C(=O)O	solubility (mole fraction)	0.000867
